Each entry below carries its recorded self-cleavage.
B1: HDV Ribozyme (parent)
chain: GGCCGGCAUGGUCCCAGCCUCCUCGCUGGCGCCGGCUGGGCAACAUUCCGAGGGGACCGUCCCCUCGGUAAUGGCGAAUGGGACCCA

# Variants of: B1
# EXPERIMENT: self-cleavage, relative activity (ratio to wild type); higher = more cleavage; co-transcriptional
Reply briefly: the number, and no unit.

Solved entries (count: 5):
G17C G81A ... 0.0978
U37G A42C ... 0.308
C26U A42C ... 0.308
G34C G54C ... 0.295
C3U G17U ... 0.193

Enquiry: Entry G17C G81C has what self-cleavage?
Return: 0.0898

Enquiry: Reported self-cleavage, variant C15G C62U : ____
Return: 0.665

Enquiry: For the variant C18U C86G , what self-cleavage is on record?
Return: 0.704

Enquiry: Value lookup for self-cleavage; key = A8G C75A
Return: 0.0692

Enquiry: Returns the measured self-cleavage for the input variant. Input: C13G G82U
Return: 0.0361

Enquiry: Tell me the measured self-cleavage of G74C A78U , please.
Return: 0.332

Enquiry: Need self-cleavage, item C41U C64G
Return: 0.635

Enquiry: // query self-cleavage value for entry U72C C84A
Return: 0.166
